test: yeast display, Sf9 membrane polyspecificity reagent, FACS + sequencing; frameworks hold sequencing errors
measurementType: polyreactivity (PSR sort gate)

residueSequence: QVKLVESGGGLDQAGGSLRLSCSASRSTFWHYAMGWYRQAPGKERELVASISGRGTSTYYADSVKGRFTISRDNAKNTVFFQMNSLKPEDTAVYYCAATKWFGAFDYWGQGTQVTVSS
polyreactivity (PSR sort gate): low polyreactivity
--
residueSequence: QVQLVESGGALVQAGGSLRLICAASGSILYAYAMGWYRQAPGKERELVATNSYRGDRTRYADSVKGRFTISRDNAKNTVYLQMNSLKPEDTAVYSCAAKRKTSVPPVVKWSGYWGQGTQVTVSS
polyreactivity (PSR sort gate): high polyreactivity
--
residueSequence: QVQLVESGGGLVQAGGSLRLSCAASGGTFWIYAMGWYRKAPGKERELVAGITTSGATTYYADSVKGRFTISRDNAKNTVYLQMNSLKPEDTAVYYCAADEYYRYEYWGQGTQVTVSS
polyreactivity (PSR sort gate): low polyreactivity
--
residueSequence: QVQLVESGGGLVQAGGSLRLSCAASGSTIADNAMGWYRQAPGKERELVAAITRSGVRTYYADSVKGRFTISRDTAKNTVYLQMNSLKPEDTAVYYCAKRTYPSRIYDYWGQGTQVTVSS
polyreactivity (PSR sort gate): high polyreactivity
--
residueSequence: QVQLVESGGGLVQAGGSLRLSCAASGRNFGINAMVWFRPAPGKERELVAAISRSGGRTYYADSVKGRFTISRDNAKNTVYLQMISLKPEDTAVYYCAKVPTYWYYRYYYWGQGTEVTVSS
polyreactivity (PSR sort gate): high polyreactivity

Tell me polyreactivity (PSR sort gate) reported for QVQLVESGGGLFQAGGSLRLSCAASGFTFAFNAMGWYRQAPGKERELVAGITSGGRTNYADSVKGRFTISRDNGKNTVYLQMNSLKPEDTAVYYCAADRPYYKGYVPPYYKYRYDYWGQGTQVTVSS
high polyreactivity

Tell me polyreactivity (PSR sort gate) reported for QVQLLESAGGLVQAGGSLRLSCAASGFIYIPYAMGWYRQAPGKERELVAAISTRGGGTYYADSVKGRFTISRDNAKKPVYLQMNSVKPEDTAVYYCNKQAFYNGRVGYDYWGQGTQVTVSS
low polyreactivity

Tell me polyreactivity (PSR sort gate) reported for QVQLVESGGGLVQAGGSLRLSCAASGFTFVKNAMGWYRQAPGNERELVAAISQSGGSTYYADSVKGRFTISRDNAKNTVYLQMNSLKPEDTAVYYCAATYYTYWGYRDYYWGQGTQVTVSS
high polyreactivity

Tell me polyreactivity (PSR sort gate) reported for QVQLVESGGGLVQAGGSLRLSCASSGLIFKKYTIGWYRQGPGKERELVASISKSGGSTYYADSVKGRFTISRDNAKNTVYLQMNSLNPEDTAVYYCNSVNHYIGFDYWGQGTQVTVSS
low polyreactivity

Tell me polyreactivity (PSR sort gate) reported for QVQLVESGGGLVQAGGSLRLSCAASGNTFGRNAMGWYIQAPGKERELVAAIDIGADTNYADSVKGRFTISRDNAKNTVYLQMNSLKPEDTAVYYCAASYRYVRWKWGYNYWGQGTQVTVSS
high polyreactivity

Tell me polyreactivity (PSR sort gate) reported for QVQLVESGGGLVQAGGSLRLSCAASGSTFRPYAMGWYRQAPGKERELVAAITSTGGSTYYADSVKGRFTISRDNAKNTVYLQMNSLKPEDTAVYYCAAPLVRYAGPYDYWGQGTQVTVSS
low polyreactivity
